For each of the compounds below, state its pIC50.
# target_or_test_system: Plasminogen (Homo sapiens, UniProt P00747)
# Sequence (P00747 97-580 limits assumed): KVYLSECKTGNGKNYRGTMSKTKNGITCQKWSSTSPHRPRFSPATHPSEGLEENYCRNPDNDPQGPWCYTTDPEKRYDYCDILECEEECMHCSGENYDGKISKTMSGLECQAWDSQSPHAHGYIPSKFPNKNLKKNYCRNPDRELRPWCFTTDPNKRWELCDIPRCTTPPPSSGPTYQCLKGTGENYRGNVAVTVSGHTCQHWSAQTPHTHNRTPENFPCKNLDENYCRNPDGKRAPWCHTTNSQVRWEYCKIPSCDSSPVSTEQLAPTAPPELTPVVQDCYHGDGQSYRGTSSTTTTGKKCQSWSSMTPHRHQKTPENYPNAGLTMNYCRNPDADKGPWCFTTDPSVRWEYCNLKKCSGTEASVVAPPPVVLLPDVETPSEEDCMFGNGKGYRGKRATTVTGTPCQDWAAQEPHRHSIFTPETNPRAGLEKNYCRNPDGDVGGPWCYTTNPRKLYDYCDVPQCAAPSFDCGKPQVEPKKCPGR
# Sequence (P00747 581-810 limits assumed): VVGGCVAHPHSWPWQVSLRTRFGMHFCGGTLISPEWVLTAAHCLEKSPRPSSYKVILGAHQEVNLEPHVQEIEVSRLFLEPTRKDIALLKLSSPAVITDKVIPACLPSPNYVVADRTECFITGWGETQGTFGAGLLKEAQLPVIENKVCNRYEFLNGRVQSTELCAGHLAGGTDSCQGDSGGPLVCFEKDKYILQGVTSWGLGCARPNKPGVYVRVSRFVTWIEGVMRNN
# experiment_summary: Inhibition of human plasmin preincubated for 15 mins followed by MeOSuc-Ala-Phe-Lys-AMC substrate addition and measured after 30 mins by fluorescence method
In textbook form, pIC50 equals minus log to base ten of the concentration in mol/L.

Supply pIC50 value. Item: `Cc1cc2c(=O)c(C(=O)O)c[nH]c2cc1-c1ccc(C[C@H](NC(=O)[C@H]2CC[C@H](CN)CC2)C(=O)Nc2cc(Cl)c3[nH]c(=O)[nH]c3c2)cc1`
8.68

Supply pIC50 value. Item: `Cc1nc2nc(C(C)C)[nH]c2cc1-c1ccc(C[C@H](NC(=O)[C@H]2CC[C@H](CN)CC2)C(=O)Nc2ccc(-c3nnc(C(F)(F)C(F)(F)C(=O)O)[nH]3)cc2)cc1`
9.38

Supply pIC50 value. Item: `Cc1cc2nc(C(C)C)[nH]c2cc1-c1ccc(C[C@H](NC(=O)[C@H]2CC[C@H](CN)CC2)C(=O)Nc2ccc(-c3nnc(C(F)(F)C(F)(F)C(=O)O)[nH]3)cc2)cc1`
9.06

Supply pIC50 value. Item: `CNC(=O)c1ccc(NC(=O)[C@H](Cc2ccc(-c3cc4[nH]cc(C(=O)O)c(=O)c4cc3C)cc2)NC(=O)[C@H]2CC[C@H](CN)CC2)cc1Cl`
9.00

Supply pIC50 value. Item: `Cc1nc2[nH]c(C3CC3)nc2cc1-c1ccc(C[C@H](NC(=O)[C@H]2CC[C@H](CN)CC2)C(=O)Nc2cc(Cl)c3[nH]c(=O)[nH]c3c2)cc1`
9.40

---

# target_or_test_system: Plasminogen (Homo sapiens)
# experiment_summary: Inhibition of human plasmin using S-2251 as substrate after 30 mins by spectrophotometric method
measured_endpoint: Ki (nM)
Report the value in nM with no unit label.

Supply Ki value. Item: `N=C(N)Nc1ccc(C(=O)Oc2ccc(S(N)(=O)=O)cc2)cc1`
310

---

# target_or_test_system: Coagulation factor XII (Homo sapiens, UniProt P00748)
# Sequence (P00748 20-372 limits assumed): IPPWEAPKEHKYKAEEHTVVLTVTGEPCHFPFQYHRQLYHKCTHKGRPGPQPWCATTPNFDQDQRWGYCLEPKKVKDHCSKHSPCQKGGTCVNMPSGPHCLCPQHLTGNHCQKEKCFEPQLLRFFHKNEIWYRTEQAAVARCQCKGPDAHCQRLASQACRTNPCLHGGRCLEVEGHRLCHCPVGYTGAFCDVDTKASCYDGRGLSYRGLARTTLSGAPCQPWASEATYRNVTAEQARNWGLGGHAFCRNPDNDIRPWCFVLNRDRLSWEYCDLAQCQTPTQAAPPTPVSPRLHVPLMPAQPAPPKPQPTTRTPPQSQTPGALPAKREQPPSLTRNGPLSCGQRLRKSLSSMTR
# Sequence (P00748 373-615 limits assumed): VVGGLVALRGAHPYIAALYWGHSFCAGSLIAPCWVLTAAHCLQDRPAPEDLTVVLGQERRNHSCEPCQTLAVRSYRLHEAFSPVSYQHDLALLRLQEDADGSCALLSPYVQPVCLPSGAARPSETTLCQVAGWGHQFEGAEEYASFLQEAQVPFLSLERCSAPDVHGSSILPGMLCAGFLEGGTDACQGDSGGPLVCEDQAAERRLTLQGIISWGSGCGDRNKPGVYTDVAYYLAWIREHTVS
measured_endpoint: Ki

Supply Ki value. Item: `N=C(N)c1ccc(CNC(=O)[C@H](CCC2CCNCC2)NC(=O)[C@@H](CCCc2ccccc2)NS(=O)(=O)Cc2ccccc2)cc1`
> 130 nM

---

Target chain: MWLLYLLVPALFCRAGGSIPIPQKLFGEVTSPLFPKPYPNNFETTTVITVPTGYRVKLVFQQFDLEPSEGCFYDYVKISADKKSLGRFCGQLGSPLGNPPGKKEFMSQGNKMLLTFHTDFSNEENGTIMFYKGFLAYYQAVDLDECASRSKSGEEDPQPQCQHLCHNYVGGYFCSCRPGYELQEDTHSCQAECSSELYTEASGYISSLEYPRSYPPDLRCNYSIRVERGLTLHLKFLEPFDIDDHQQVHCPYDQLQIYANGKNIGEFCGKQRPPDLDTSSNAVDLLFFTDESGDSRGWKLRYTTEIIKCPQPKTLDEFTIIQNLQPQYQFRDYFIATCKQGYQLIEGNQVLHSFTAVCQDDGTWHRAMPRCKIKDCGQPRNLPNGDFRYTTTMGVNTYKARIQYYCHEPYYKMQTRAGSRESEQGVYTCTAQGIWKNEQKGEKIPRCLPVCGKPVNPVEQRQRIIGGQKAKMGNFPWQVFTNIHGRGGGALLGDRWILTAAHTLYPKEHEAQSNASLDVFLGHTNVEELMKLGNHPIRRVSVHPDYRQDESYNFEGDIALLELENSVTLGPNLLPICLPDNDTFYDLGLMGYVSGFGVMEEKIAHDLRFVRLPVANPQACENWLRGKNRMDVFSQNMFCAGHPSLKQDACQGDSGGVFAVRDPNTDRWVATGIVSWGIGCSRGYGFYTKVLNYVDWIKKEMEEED
For each of the compounds below, state its Ki.

Supply Ki value. Item: `N=C(N)c1ccc(CNC(=O)[C@H](CCC2CCNCC2)NC(=O)[C@@H](CCCc2ccccc2)NS(=O)(=O)Cc2ccccc2)cc1`
> 0.13 µM

Supply Ki value. Item: `N=C(N)c1ccc(CNC(=O)[C@H](CCC2CCNCC2)NC(=O)[C@@H](CCC2CCN(C(=O)C3CC3)CC2)NS(=O)(=O)Cc2ccccc2)cc1`
> 1 µM

---

For each of the compounds below, state its IC50.
# target_or_test_system: Plasma kallikrein (Homo sapiens, UniProt P03952)
# Sequence (P03952 20-390 limits assumed): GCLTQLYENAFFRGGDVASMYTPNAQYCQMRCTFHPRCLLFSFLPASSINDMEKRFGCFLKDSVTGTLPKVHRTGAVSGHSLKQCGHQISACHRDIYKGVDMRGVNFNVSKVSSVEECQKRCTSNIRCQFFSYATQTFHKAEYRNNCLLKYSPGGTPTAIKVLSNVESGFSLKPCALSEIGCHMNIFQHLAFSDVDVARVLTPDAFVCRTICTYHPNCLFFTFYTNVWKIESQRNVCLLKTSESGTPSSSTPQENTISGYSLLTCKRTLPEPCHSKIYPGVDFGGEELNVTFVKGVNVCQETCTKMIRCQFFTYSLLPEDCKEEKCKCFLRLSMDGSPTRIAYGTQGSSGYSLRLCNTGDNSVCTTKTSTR
# Sequence (P03952 391-638 limits assumed): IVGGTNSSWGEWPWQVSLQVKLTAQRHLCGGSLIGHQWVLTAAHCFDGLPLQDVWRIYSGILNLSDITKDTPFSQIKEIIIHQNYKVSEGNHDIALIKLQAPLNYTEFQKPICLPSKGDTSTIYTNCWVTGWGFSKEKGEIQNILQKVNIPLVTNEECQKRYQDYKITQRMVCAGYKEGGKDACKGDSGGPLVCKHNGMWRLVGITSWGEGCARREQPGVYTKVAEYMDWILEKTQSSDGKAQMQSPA
# experiment_summary: Inhibition of human plasma kallikrein preincubated for 15 mins followed by H-Pro-Phe-Arg-AMC substrate addition and measured after 30 mins by fluorescence method
Report the value in nM with no unit label.

Supply IC50 value. Item: `Cc1cc2c(=O)c(C(=O)O)c[nH]c2cc1-c1ccc(C[C@H](NC(=O)[C@H]2CC[C@H](CN)CC2)C(=O)Nc2cc(Cl)c3[nH]c(=O)[nH]c3c2)cc1`
0.7

Supply IC50 value. Item: `Cc1cc2nc(C(C)C)[nH]c2cc1-c1ccc(C[C@H](NC(=O)[C@H]2CC[C@H](CN)CC2)C(=O)Nc2ccc(-c3nnc(C(F)(F)C(F)(F)C(=O)O)[nH]3)cc2)cc1`
7.2

Supply IC50 value. Item: `Cc1nc2nc(C(C)C)[nH]c2cc1-c1ccc(C[C@H](NC(=O)[C@H]2CC[C@H](CN)CC2)C(=O)Nc2ccc(-c3nnc(C(F)(F)C(F)(F)C(=O)O)[nH]3)cc2)cc1`
1.7

Supply IC50 value. Item: `CNC(=O)c1ccc(NC(=O)[C@H](Cc2ccc(-c3cc4[nH]cc(C(=O)O)c(=O)c4cc3C)cc2)NC(=O)[C@H]2CC[C@H](CN)CC2)cc1Cl`
8.5

---

# target_or_test_system: Plasminogen (Homo sapiens)
# experiment_summary: Inhibition of human plasmin
measured_endpoint: pKi
In textbook form, pKi equals minus log to base ten of the concentration in mol/L.

Supply pKi value. Item: N=C(N)c1cccc(C[C@H](NS(=O)(=O)c2ccc3ccccc3c2)C(=O)N2CCCC(C(=O)NCc3cccs3)C2)c1 (stereo partly specified)
6.85

---

For each of the compounds below, state its Ki.
# target_or_test_system: Tissue-type plasminogen activator (Homo sapiens)
# Sequence (P00750 whole entry): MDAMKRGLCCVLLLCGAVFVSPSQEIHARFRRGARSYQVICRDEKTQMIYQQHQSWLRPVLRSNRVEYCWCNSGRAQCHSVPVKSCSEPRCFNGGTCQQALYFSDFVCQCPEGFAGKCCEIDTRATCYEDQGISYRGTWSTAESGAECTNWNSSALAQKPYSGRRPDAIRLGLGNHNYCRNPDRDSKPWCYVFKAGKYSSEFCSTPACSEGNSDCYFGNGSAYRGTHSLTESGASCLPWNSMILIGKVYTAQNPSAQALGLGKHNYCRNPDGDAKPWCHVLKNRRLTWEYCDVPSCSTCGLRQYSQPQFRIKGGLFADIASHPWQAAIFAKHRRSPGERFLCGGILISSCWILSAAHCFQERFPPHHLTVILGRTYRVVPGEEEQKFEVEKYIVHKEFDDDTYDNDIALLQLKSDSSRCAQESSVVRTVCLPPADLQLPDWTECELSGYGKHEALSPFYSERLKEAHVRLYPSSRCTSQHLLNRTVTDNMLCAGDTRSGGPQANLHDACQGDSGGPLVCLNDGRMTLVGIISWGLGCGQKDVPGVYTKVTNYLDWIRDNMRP
# experiment_summary: Inhibition of human tissue-type plasminogen activator using Mes-d-Cha- Gly-Arg-pNA as substrate

Supply Ki value. Item: `N=C(N)c1ccc(CNC(=O)[C@H](CCC2CCNCC2)NC(=O)[C@@H](CCC2CCN(C(=O)C3CC3)CC2)NS(=O)(=O)Cc2ccccc2)cc1`
> 1000 nM

Supply Ki value. Item: `N=C(N)c1ccc(CNC(=O)[C@H](CCC2CCNCC2)NC(=O)[C@@H](CCCc2ccccc2)NS(=O)(=O)Cc2ccccc2)cc1`
> 130 nM

---

measured_endpoint: Ki

Give Ki only, for `N=C(N)c1ccc(CNC(=O)[C@H](CCC2CCNCC2)NC(=O)[C@@H](CCCc2ccccc2)NS(=O)(=O)Cc2ccccc2)cc1` , using UniProt:P03951 data.
Sequence (P03951 19-387 limits assumed): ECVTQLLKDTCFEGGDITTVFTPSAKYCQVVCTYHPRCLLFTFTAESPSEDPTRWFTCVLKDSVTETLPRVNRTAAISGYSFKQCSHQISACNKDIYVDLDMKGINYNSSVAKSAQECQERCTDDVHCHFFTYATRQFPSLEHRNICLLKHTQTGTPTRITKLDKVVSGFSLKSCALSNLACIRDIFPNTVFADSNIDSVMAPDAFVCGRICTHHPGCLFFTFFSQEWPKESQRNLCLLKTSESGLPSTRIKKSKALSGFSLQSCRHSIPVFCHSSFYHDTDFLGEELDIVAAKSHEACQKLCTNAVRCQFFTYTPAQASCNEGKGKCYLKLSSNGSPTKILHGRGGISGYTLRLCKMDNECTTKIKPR
Sequence (P03951 388-625 limits assumed): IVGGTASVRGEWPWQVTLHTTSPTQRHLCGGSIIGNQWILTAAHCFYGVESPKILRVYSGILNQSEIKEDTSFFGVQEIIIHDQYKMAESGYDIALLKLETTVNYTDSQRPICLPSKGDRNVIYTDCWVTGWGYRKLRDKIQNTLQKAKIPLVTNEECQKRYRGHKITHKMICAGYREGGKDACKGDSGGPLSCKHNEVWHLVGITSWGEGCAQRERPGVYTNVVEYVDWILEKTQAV
> 0.13 µM

---

# target_or_test_system: Urokinase-type plasminogen activator (Homo sapiens)
# experiment_summary: Inhibition of urokinase-type plasminogen activator (unknown origin)
For each of the compounds below, state its pKi.
In textbook form, pKi equals minus log to base ten of the concentration in mol/L.

Give pKi only, for `N=C(N)c1ccc(CNC(=O)[C@H](CCc2ccccc2)NC(=O)[C@@H](CO)NS(=O)(=O)Cc2ccccc2)cc1` , using Urokinase-type plasminogen activator (Homo sapiens) data.
7.55

Give pKi only, for `N=C(N)c1ccc(CNC(=O)[C@@H]2CCN2C(=O)[C@H](NCC(=O)O)C2CCCCC2)cc1` , using Urokinase-type plasminogen activator (Homo sapiens) data.
5.20

---

For each of the molecules below, state its Ki.

Give Ki only, for `N=C(N)c1ccc(CNC(=O)[C@H](CCC2CCNCC2)NC(=O)[C@@H](CCC2CCN(C(=O)C3CC3)CC2)NS(=O)(=O)Cc2ccccc2)cc1` , using Complement C1s subcomponent (Homo sapiens) data.
> 1 µM

Give Ki only, for `N=C(N)c1ccc(CNC(=O)[C@H](CCC2CCNCC2)NC(=O)[C@@H](CCCc2ccccc2)NS(=O)(=O)Cc2ccccc2)cc1` , using Complement C1s subcomponent (Homo sapiens) data.
> 0.13 µM

---

# target_or_test_system: Plasminogen (Homo sapiens, UniProt P00747)
# experiment_summary: Inhibition of plasmin (unknown origin) using D-Val-Leu-Lys-p-nitroanilide as substrate
measured_endpoint: Ki

Supply Ki value. Item: O=C(CCC1CCCC(NC(=O)[C@H](Cc2c[nH]c3ccccc23)NC(=O)OCc2ccccc2)C1=O)N[C@@H](Cc1c[nH]c2ccccc12)C(=O)O (mixture of isomers)
5 to 10 µM

---

# target_or_test_system: Plasminogen (Homo sapiens)
# experiment_summary: Competitive inhibition of human plasmin assessed as reduction in hydrolytic activity using S-2251 as substrate by spectrophotometric method
measured_endpoint: pKi
In textbook form, pKi equals minus log to base ten of the concentration in mol/L.

Supply pKi value. Item: CCOC(=O)c1ccc(OC(=O)CCCCCNC(=N)N)cc1 [GABEXATE]
5.72
